test system: HCT116 cells; assay: Measurement of cell growth inhibition (Cell Counting Kit-8, four days); details: Homo sapiens, HCT-116, 96 h, read-out: Cell growth-inhibiting activity (IC50, μM) Colon cancer HCT116, HCT116 colon cancer cell line, four days culture
endpoint.name: IC50 (µM)

compound: Nc1nc2nc(n1)-c1cc(c(Cl)cc1Cl)OCCOCCOc1cccc(c1)S2 [Compound 27]
value.units: µM
quantitative.readout: 1.4
//
compound: Cc1cc(C)c2cc1C(=O)NCCC(N)C(=O)NCCSc1cc-2nc(N)n1 (stereo not drawn) [Compound 73]
value.units: µM
quantitative.readout: 0.5
//
compound: Cc1cc(C)c2cc1C(=O)NCCCC(=O)N(CCO)CCSc1cc-2nc(N)n1 [Compound 79]
value.units: µM
quantitative.readout: 0.4
//
compound: Cc1cc(C)c2cc1C(=O)NCCC(NC(=O)[C@H](N)Cc1ccc(O)cc1)C(=O)NCCSc1cc-2nc(N)n1 (stereo partly drawn) [Compound 77]
value.units: µM
quantitative.readout: 6.5

1. Cc1cc(C)c2cc1C(=O)NCCCN(C)C(=O)CCSc1cc-2nc(N)n1 [Compound 32]
2. Cc1cc(C)c2cc1C(=O)NCC1(CNC(=O)CCSc3cc-2nc(N)n3)COC1 [Compound 72]
Request: Which value of IC50 is greater, the one for 1 or the one for 2 ? Please respond with the label that marks your chosen entry.
Response: 2

###

tested on: HCT116 cells; experiment: Measurement of cell growth inhibition (Cell Counting Kit-8, four days); conditions: Homo sapiens, HCT-116, 96 h, read-out: Cell growth-inhibiting activity (IC50, μM) Colon cancer HCT116, HCT116 colon cancer cell line, four days culture;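 note: cells exposed to a range of test concentrations at 37 °C in 5% CO2 for four days, then growth read as absorbance with Cell Counting Kit-8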
In this section, each of the compounds is paired with its reported IC50.

See these solved cases before continuing.
compound: COc1cc(C)c2cc1C(=O)N(C)CCCC(=O)NCCSc1cc-2nc(N)n1
IC50: > 10 µM
//
compound: Cc1cc(C)c2cc1C(=O)NCCC[C@@H](C(=O)NCCO)NC(=O)CCSc1cc-2nc(N)n1
IC50: > 10 µM
//
compound: Cc1cc(C)c2cc1C(=O)NCCC[C@@H](C(=O)NCC(O)CO)NC(=O)CCSc1cc-2nc(N)n1 (stereo partly drawn)
IC50: > 10 µM
//
compound: Cc1cc(C)c2cc1C(=O)NCC[C@@H](C(=O)N1CCOCC1)NC(=O)CCSc1cc-2nc(N)n1
IC50: > 10 µM

Request: Return the recorded IC50 value; entry: Cc1cc(C)c2cc1C(=O)N[C@H](C(=O)N(C)C)CCNC(=O)CCSc1cc-2nc(N)n1
Response: > 5 µM

Request: Recall and state the measured IC50 for COc1cc(C)c2cc1C(=O)NCCCC(=O)NCCSc1cc-2nc(N)n1 .
Response: > 10 µM

Source of measurements: patent US8362236B2
